test system: RARb homodimer (NR concentration 270 nM); experiment: PBM binding z-score (relative to random genomic background probes); higher = stronger binding; sequences stand for … in GC…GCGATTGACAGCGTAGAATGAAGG
experimentalReadout: PBM binding z-score
The reply should be a number, written without any unit.

# input Look up PBM binding z-score for this sequence: TCTGCTAGGTCATTTGGTCAGCTAACGAGCTGCC
# output 2.97

----------
system: THRa:RXRa (NR concentration 90 nM, RXRa partner concentration 90 nM); experiment: PBM binding z-score (relative to random genomic background probes); higher = stronger binding; sequences stand for … in GC…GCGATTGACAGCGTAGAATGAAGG
Each entry gets False if its PBM binding z-score stays under 1, and True if its PBM binding z-score is 1 or above.

# input Dear colleague, could you confirm whether CGTCAAAGTTCAACTAAGGTAACGTGAAGCACGC has PBM binding z-score at or above 1?
# output True

# input Dear colleague, could you confirm whether ACTATTAGTTGACTTAGGGCAAACGATACGACGC has PBM binding z-score at or above 1?
# output True

# input Dear colleague, could you confirm whether ACTCGTTGGTCAGCTGAGGTCACACACAATTCGG has PBM binding z-score at or above 1?
# output True

# input Dear colleague, could you confirm whether CCTAGCAGGCCAATCTGGGTCACTGAAGGCTTGA has PBM binding z-score at or above 1?
# output True

# input Dear colleague, could you confirm whether ATCTTTAGGTAACCAAGTTCAGTGAATGCCGAAC has PBM binding z-score at or above 1?
# output True

# input Dear colleague, could you confirm whether ATCTCCAGGTAAAGTTCAGTGAAAGATCGATAGA has PBM binding z-score at or above 1?
# output True

# input Dear colleague, could you confirm whether ACTAGCAGGCCAAGGATCACTCAAGATTAGTCCG has PBM binding z-score at or above 1?
# output False

# input Dear colleague, could you confirm whether CGTCAAAGTTCAAGGTAACGTATCAGAAAGCAGC has PBM binding z-score at or above 1?
# output True

----------
tested on: RARg homodimer (NR concentration 270 nM); assay: PBM binding z-score (relative to random genomic background probes); higher = stronger binding; sequences stand for … in GC…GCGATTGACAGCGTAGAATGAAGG
experimentalReadout: PBM binding z-score
The reply should be a number, written without any unit.

> print(dat)
                        sequencechain  experimentalreadout  observedvalue
1  GGAACGAGGGCAAACTTGATAGCATCTGTCGACG  PBM binding z-score           1.62

# input Param readout= PBM binding z-score; system= RARg homodimer (NR concentration 270 nM); entry= TCGAGTAGGTTAGTCGGGGCAATCAGCCAACATA ; returns value.
# output 0.25

# input Param readout= PBM binding z-score; system= RARg homodimer (NR concentration 270 nM); entry= CGTCCAAGGTCAGAGTGGTCAGTGAATGCCGAGT ; returns value.
# output 5.48

# input Param readout= PBM binding z-score; system= RARg homodimer (NR concentration 270 nM); entry= TCATATAGGTAAAAGGTGAAAGCCGGTGTGGTAA ; returns value.
# output 0.955

# input Param readout= PBM binding z-score; system= RARg homodimer (NR concentration 270 nM); entry= CATACTAGGTCAAGAGGTCAAAGTCCGCTTCCCG ; returns value.
# output 7.68

# input Param readout= PBM binding z-score; system= RARg homodimer (NR concentration 270 nM); entry= CCAGGCAGGTGAAAGGTAACTCAGTCTGGTACGC ; returns value.
# output 0.255

# input Param readout= PBM binding z-score; system= RARg homodimer (NR concentration 270 nM); entry= CCGACAGGGGCAGAAAGGTTACCATACCATCCGG ; returns value.
# output 1.71

# input Param readout= PBM binding z-score; system= RARg homodimer (NR concentration 270 nM); entry= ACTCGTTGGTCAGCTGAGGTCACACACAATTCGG ; returns value.
# output 4.25

# input Param readout= PBM binding z-score; system= RARg homodimer (NR concentration 270 nM); entry= CCTACTCGGCCATCAGGTCATTGATATCAACGTT ; returns value.
# output 2.51

# input Param readout= PBM binding z-score; system= RARg homodimer (NR concentration 270 nM); entry= CCTTACGGGTCAATGACAGGTTATAGCATTTGGA ; returns value.
# output 4.22

# input Param readout= PBM binding z-score; system= RARg homodimer (NR concentration 270 nM); entry= CCAACTGGGCCAAAGGTCATTGATTCCAATGCTC ; returns value.
# output 4.82

# input Param readout= PBM binding z-score; system= RARg homodimer (NR concentration 270 nM); entry= CCTAGGAGGACAGAAGGTCAGAGCTGTCCGCTTT ; returns value.
# output 2.78

Values from the supplement of paper PMC6555819
